Test system: RXF 393 renal
Assay: NCI-60 one-dose screen, 48 h (100 = growth as untreated, 0 = no growth, -100 = all killed)
Conditions: 10 µM unless noted
This is part of a sample that, as a whole, favours compounds with a hit. Of some 83,000 tested, about 20% had one in any assay.

# compound, growth, %
rows = [
    ("O=C1CCC(c2c(O)cc(O)c3c(=O)c(O)c(-c4ccc(O)c(O)c4)oc23)N1 (stereo not given)", 99.8),
    ("CC1OC(n2c3ccccc3c3c4c(c5c6ccccc6[nH]c5c32)C(=O)N(CCN[C@@H]2CCC[C@H]2N)C4=O)CC(O)C1O (stereo not given in full)", 33.7),
    ("CN1CCN(CC(=O)N(C)c2ccc(N=C(c3ccccc3)c3c(O)[nH]c4ccc(C#N)cc34)cc2)CC1", 3.21),
    ("Nc1c(C(=O)O)[nH]c(=O)[nH]c1=O", 93.5),
    ("O=C(COc1ccc(Cl)cc1)N1CCN(Cc2ccc3c(c2)OCO3)CC1", 109),
]

====

System: SNB-75 CNS
Assay: NCI-60 one-dose screen, 48 h (100 = growth as untreated, 0 = no growth, -100 = all killed)
Conditions: 10 µM unless noted
Compounds without any hit were thinned out: in the full panel of roughly 83,000, 20% have a hit.
Listed below: growth values for each entry.

# compound, growth [%]
rows = [
    ("COc1ccc(SC2c3ccc(O)cc3Oc3nc(N)c(C#N)c(N)c32)cc1 (stereo not given)", 84.7),
    ("Cc1cccc(NC(=O)CCc2ccc(N3C(N)=NC(N)=NC3(C)C)cc2)c1", 60.2),
    ("COc1cc(NC(C)CCCN2C(=O)c3ccccc3C2=O)c2ncccc2c1OC (stereo not given)", 84.8),
    ("NC(CSC(c1ccccc1)(c1ccccc1)c1ccc(F)cc1)C(=O)O (stereo not given)", -0.679),
    ("Cc1c(F)cccc1NC(=O)c1sc2nc3c(cc2c1N)CCCCC3", 76.2),
    ("Cc1cccc(Cc2cnc(NC(=O)CCc3ccc(C)o3)s2)c1", 23.9),
    ("CCOc1ccc(NC2=C(Cl)C(=O)c3ccccc3C2=O)cc1", 81.3),
    ("C=CCn1c(SCC(=O)Nc2ccc(C(=O)/C=C/c3cc(OC)c(OC)c(OC)c3)cc2)nnc1-c1ccc(OC)cc1", 6.75),
    ("O=C(O)c1ccc(-n2cc(/C=N/Nc3ccc(Cl)cc3)c(-c3ccc(F)c(F)c3)n2)cc1", 89.6),
    ("COc1cc(-c2nc3sc(C)cn3c2/C=C2\\C(=O)Nc3ccccc32)c(Br)c(OC)c1OC", 18.2),
]

====

Tested on: MOLT-4 leukemia
Test: NCI-60 one-dose screen, 48 h
Conditions: 10 µM unless noted
About 83,000 compounds went through this panel and 20% of them were active in at least one assay; those are over-represented in the sample as a whole. Active and inactive are the calls of the source. Rule for the calls: active = growth percent below 10; inactive = the rest.
Outcome codes: Yes = active, No = inactive

# compound, label.value
measured = [
    ("COC1=C(OC)C(=O)C=CC1=O", "No"),
    ("NC(N)=N/N=C/c1ccc([N+](=O)[O-])cc1", "No"),
    ("Cc1cc2nc(-c3c(N)ncc(C#N)c3-c3ccc(Cl)cc3)[nH]c2cc1C", "No"),
    ("C=C1C(=O)O[C@H]2[C@H]1CC/C(C(=O)Nc1ccc(OC)c(C(N)=O)c1O)=C\\CC[C@@]1(C)O[C@@H]21", "No"),
    ("COc1ccc(C(=O)NC(=O)Nc2ccc3c(c2)NC(=O)/C3=C\\c2[nH]c(C)c(C(=O)O)c2C)c(F)c1", "No"),
    ("O=C(Nc1ccc(-n2cc(-c3ccncc3)c(-c3ccc(O)c(Cl)c3)n2)cc1)c1cc(Cl)cc(Cl)c1", "No"),
    ("CC(NCCC(c1ccccc1)c1ccccc1)c1ccccc1 (stereo not given)", "No"),
    ("c1ccc(OCC[P+](c2ccccc2)(c2ccccc2)c2ccccc2)cc1", "No"),
    ("CCN(CC)CCNCC(O)Cc1ccc(OC)cc1 (stereo not given)", "No"),
    ("CCc1c(C)c2cc(-n3c(-c4ccc(OC)cc4)csc3=N)c(O)c(C)c2oc1=O", "Yes"),
]

====

Listed below: growth values for each entry.
Tested on: A498 renal
Test: NCI-60 one-dose screen, 48 h (100 = growth as untreated, 0 = no growth, -100 = all killed)
Settings: 10 µM unless noted
About 83,000 compounds went through this panel and 20% of them were active in at least one assay; those are over-represented in the sample as a whole.

# molecule, growth, %
measured = [
    ("CCNc1ncnc2n[nH]nc12", 102),
    ("C=C1C(=O)O[C@H]2[C@H]1CC/C(C(=O)NCCOCCOCC(=O)Nc1ccc(OC)c(C(N)=O)c1O)=C\\CC[C@@]1(C)O[C@@H]21", 105),
    ("C=C1C(=O)O[C@H]2[C@H]1CC/C(COC(=O)c1ccc(Br)cc1)=C\\CC[C@@]1(C)O[C@@H]21", 100),
    ("COc1ccc(-c2c(C#N)cnc(N)c2-c2nc3cc(C)c(C)cc3[nH]2)cc1", 82.9),
    ("COc1ccc(-c2[nH]c3ccccc3c2/C=C(\\C#N)S(=O)(=O)c2ccccc2)cc1", 2.31),
    ("COc1ccc(C(=O)NC(=O)Nc2ccc3c(c2)NC(=O)/C3=C\\c2[nH]c(C)c(CCC(=O)O)c2C)c(F)c1", -0.45),
    ("CC(Cc1cccc(C(F)(F)F)c1)NCCOC(=O)c1ccccc1 (centres undefined)", 107),
    ("COc1ccc2c(-c3ccc(F)cc3)c(C#N)c(=NC(C)=O)oc2c1", 18.1),
    ("CCCCCCCCCCCCCCCC(=O)NS(=O)(=O)OC[C@H]1O[C@@H](n2cnc3c(N)ncnc32)[C@H](O)[C@@H]1O", -95.6),
    ("C#C[C@H](O)/C=C/CCCCCCC#C[C@H](O)CC[C@@H](O)C#CCCCCCC/C=C/[C@@H](O)C#C", 102),
    ("O=C(NCCNc1nccc(-c2c(-c3cccc(O)c3)nc3sccn23)n1)Nc1cccc(C(F)(F)F)c1", 111),
    ("O=C(Nc1ccc(Cl)c(Cl)c1)Nc1ccc(Cl)c([N+](=O)[O-])c1", -25.9),
    ("CCCCOc1nc2ccc(Cl)cc2cc1/C=C/C(=O)/C=C/c1ccc(Cl)cc1", 92.4),
    ("O=C(Nc1ccc(-n2cc(-c3ccncc3)c(-c3ccc(O)c(Cl)c3)n2)cc1)c1ccc(Cl)c(C(F)(F)F)c1", 77.7),
    ("COc1cc(NC(C)CCCN2C(=O)c3ccccc3C2=O)c2nc(C)ccc2c1OC (centres undefined)", 97.5),
    ("COc1cc(NC(C)CCCN2C(=O)c3ccccc3C2=O)c2ncccc2c1OC (centres undefined)", 104),
    ("O=c1nc(N2CCOCC2)oc2c(-c3cccc4ccccc34)cccc12", 8.01),
    ("COc1ccc(N)c(S)c1", 112),
    ("CCc1c(C)c2cc(-n3c(-c4ccc(OC)cc4)csc3=N)c(O)c(C)c2oc1=O", 17.1),
]

====

Test system: NCI-H23 lung
Assay: NCI-60 one-dose screen, 48 h (100 = growth as untreated, 0 = no growth, -100 = all killed)
Details: 10 µM unless noted
Compounds without any hit were thinned out: in the full panel of roughly 83,000, 20% have a hit.
# binarize growth: threshold 80% inclusive, high side Fulfilled, low side Not fulfilled

# compound, label.value
rows = [
    ("COc1cc(NC(C)CCCN2C(=O)c3ccccc3C2=O)c2nccc(C)c2c1OC (stereo unspecified)", "Fulfilled"),
    ("CCN(CC)c1ccc(C2CC(c3cc(OC)c(OC)c(OC)c3)=NN2)cc1 (stereo unspecified)", "Not fulfilled"),
    ("COc1ccccc1P(c1ccccc1OC)c1ccccc1OC", "Fulfilled"),
    ("Clc1ccc(OCc2nc(-c3ccccc3)n[nH]2)c(Cl)c1", "Fulfilled"),
    ("Cn1c(I)c(C#C[Si](C)(C)C)c(=O)[nH]c1=O", "Not fulfilled"),
]

====

Test system: MDA-MB-435 melanoma
Experiment: NCI-60 one-dose screen, 48 h
Settings: 10 µM unless noted
Compounds without any hit were thinned out: in the full panel of roughly 83,000, 20% have a hit. Calls of active or inactive are those of the source. How the source made its calls: active means growth percent below 10; inactive means the rest.
Outcome codes: active, inactive

# compound.structure.string, label.value
data = [
    ("CC(C)C1(C(C)C)NC(=O)NC1=O", "inactive"),
    ("CCn1cc(C(=O)O)c(=O)c2cc(F)c(N3CCN(CC(=O)Nc4ccc(C(C)=O)cc4)CC3)cc21", "inactive"),
    ("CCCN1C(=O)CSC1=Nc1ccc2cc3ccc(N=C4SCC(=O)N4CCC)cc3nc2c1", "inactive"),
    ("Cc1nc(N)nc(SCc2ccccc2)c1Br", "inactive"),
    ("CC(C)CCC[C@@H](C)[C@H]1CC[C@H]2[C@@H]3CC=C4N(c5ccccc5)C(=O)CC[C@]4(C)[C@H]3CC[C@]12C", "inactive"),
    ("c1ccc2c(c1)Oc1cccnc1-n1nccc1-2", "inactive"),
    ("O=C(NCCNc1nccc(-c2c(-c3cccc(O)c3)nc3sccn23)n1)c1ccccc1O", "inactive"),
    ("Cc1nssc1=S", "inactive"),
    ("O=C(O)c1ccc(-n2cc(/C=N/Nc3ccc(Cl)cc3)c(-c3ccc(F)c(F)c3)n2)cc1", "inactive"),
    ("COc1cc(-c2nc3sc(C)cn3c2/C=C2\\C(=O)Nc3ccccc32)c(Br)c(OC)c1OC", "active"),
]
